// provenance: patent US20250388702A1

# targetEntity: Human KIR3DL3 (human, UniProt Q8N743 26-410)
# Sequence (Q8N743 26-410 H321N limits assumed): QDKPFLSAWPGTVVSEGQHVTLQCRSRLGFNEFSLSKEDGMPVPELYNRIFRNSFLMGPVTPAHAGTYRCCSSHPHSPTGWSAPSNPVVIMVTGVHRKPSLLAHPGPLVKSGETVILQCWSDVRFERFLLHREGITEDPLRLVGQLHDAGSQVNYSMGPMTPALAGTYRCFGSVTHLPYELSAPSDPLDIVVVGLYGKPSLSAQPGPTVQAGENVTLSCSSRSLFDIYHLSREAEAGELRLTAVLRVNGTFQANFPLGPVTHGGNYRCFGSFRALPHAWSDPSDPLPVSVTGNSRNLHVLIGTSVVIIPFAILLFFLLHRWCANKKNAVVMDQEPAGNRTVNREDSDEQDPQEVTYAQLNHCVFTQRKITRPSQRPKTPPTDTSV
# methodSummary: cell-based or functional assay
resultType: Jurkat IL-2 Luciferase Activation, EC50 (µg/mL)
Provide the reading as a plain figure in µg/mL.

Consider the following illustrative entries.
{"binder": "KIR3DL3 mAb 574.2.2D8.6.9 (antibody, IgG2b, V domains shown, Mouse hybridoma antibody, IgG2b; also called AVS-3702) VH: DVQLVESGGGLVQPGGSRKLSCAASGFTFSYFGMHWVRRAPEKGLEWVAFISSDSTTIYYTDTVKGRFTISRDNPKNTLFLQMTSLRSEDTAIYYCARFYDGAMDYWGQGTSVTVST VL: DIVMTQSQKFMSTSVGDRVSITCKASQSVRTAVAWYQQKPGQSPKVLIYLASNRHTGVPDRFTGSGSGTDFTLTISNVQSEDLADYFCLQHWNYPLTFGAGTKLELK", "readoutUnits": "µg/mL", "observedValue": 1.3}
{"binder": "KIR3DL3 mAb 574.2.2F11.2.7.4 (antibody, IgG2b, V domains shown, Parental mouse hybridoma antibody, IgG2b; only variable domains given; also called AVS-3703) VH: DVQLVESGGGLVQPGGSRKLSCAASGFTFSYFGMHWVRRAPEKGLEWVAFISSDSTTIYYTDTVKGRFTISRDNPKNTLFLQMTSLRSEDTAIYYCARFYDGAMDYWGQGTSVTVST VL: DIVMTQSQKFMSTSVGDRVSITCKASQSVRTAVAWYQQKPGQSPKVLIYLASNRHTGVPDRFTGSGSGTDFTLTISNVQSEDLADYFCLQHWNYPLTFGAGTKLELK", "readoutUnits": "µg/mL", "observedValue": 1.25}
{"binder": "KIR3DL3 mAb 574.2.2H1.11.6 (antibody, IgG2b, V domains shown, Mouse hybridoma antibody, IgG2b; only variable domains given; also called AVS-3704) VH: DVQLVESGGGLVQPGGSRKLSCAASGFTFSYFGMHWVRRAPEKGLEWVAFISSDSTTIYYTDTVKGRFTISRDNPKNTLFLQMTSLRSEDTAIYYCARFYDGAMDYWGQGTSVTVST VL: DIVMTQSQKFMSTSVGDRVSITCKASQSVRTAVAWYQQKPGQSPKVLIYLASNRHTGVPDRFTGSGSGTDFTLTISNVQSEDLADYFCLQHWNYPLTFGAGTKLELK", "readoutUnits": "µg/mL", "observedValue": 1.79}

API: the following record is the query input.
Incoming: Look up Jurkat IL-2 Luciferase Activation, EC50 for this binder: KIR3DL3 mAb 574.2.1C7.D2.6.5 (antibody, IgG1, V domains shown, Mouse hybridoma antibody, IgG1; only variable domains given; also called AVS-3698) VH: QVQLQQSGAELMKPGASVKISCKATGYTFSNYWIEWIKQRPGHGLEWIGEILPGSGSTNYNEKFKGKATFTAATSSNTAYMQLSSLTSEDSAVYYCARRVPDYYGSRYYFDYWGQGTTLTVSS VL: NIVMTQSPKSMSMSVGERVTLSCKASENVGIYVSWYQQKPEQSPKLLIYGASNRYTGVPDRFTGSGSATDFTLTISSVQAEDLADYHCGQSYNYPFTFGSGTKLEIK
Outgoing: 77
